Values were extracted from PubChem BioAssay (NCI).

System: MDA-MB-468 breast
Test: NCI-60 one-dose screen, 48 h (100 = growth as untreated, 0 = no growth, -100 = all killed)
Conditions: 10 µM unless noted
Compounds without any hit were thinned out: in the full panel of roughly 83,000, 20% have a hit.
metric: growth (%)
Just the number in %, nothing appended.

Consider the reported growth for these molecules:
{"columns": ["molecular_string", "growth [%]"],
 "data": [
  ["O=C(N=Nc1c(O)[nH]c2ccccc12)Nc1ccccc1Cl", 11.5],
  ["COc1cc(/C=C/C(=O)c2ccc(NC(=O)COc3cccc4cccnc34)cc2)cc(OC)c1OC", 75.6],
  ["c1c[nH]c(CNC2CCCCC2)c1", 141],
  ["NS(=O)(=O)c1ccc(C(=O)NN2C(=O)c3ccccc3C2=O)cc1", 122],
  ["COC(=O)[C@H]1[C@H]2C[C@@H]3c4[nH]c5cc(OC)ccc5c4CCN3C[C@H]2C[C@@H](OC(=O)/C=C/c2cc(OC)c(OC)c(OC)c2)[C@@H]1OC", 9.21]
]}

Measured growth, "CC(C)(C)OC(=O)CN1CCc2c(sc3ncnc(N/N=C/c4cccc5ccccc45)c23)C1" : 34.3

The molecule identified as "N#CCNc1ccc(C(=O)O)cc1" registered its growth at 92.8

Value of growth reported for the molecule "COc1ccccc1C1=C(Br)C(=O)c2nc(C)ccc2C1=O" is 107

The recorded growth for entry "O=C(CNC1CCCCC1)Nc1ccc(-c2nc3ccccc3s2)cc1" equals 35.9

// "C#Cc1ccc(-n2c(/C=C/c3cc(OC)c(OC)c(OC)c3)nc3ncccc3c2=O)cc1" : growth value = 3.92

---

Tested on: MDA-MB-468 breast
Test: NCI-60 one-dose screen, 48 h (100 = growth as untreated, 0 = no growth, -100 = all killed)
Settings: 10 µM unless noted
Compounds without any hit were thinned out: in the full panel of roughly 83,000, 20% have a hit.
Criterion: growth strictly less than 20%. Met: True. Not met: False.

Illustrative cases are given below, each with its answer.
{"columns": ["compound", "qualitative_label"],
 "data": [
  ["O=[N+]([O-])c1cccc(-c2nc3sccn3c2-c2ccnc(NCCCNS(=O)(=O)c3ccc(Br)cc3)n2)c1", "False"],
  ["COc1cccc(-c2nc3sccn3c2-c2cccc(S(C)(=O)=O)c2)c1", "False"],
  ["CCN1CCN(CCNc2nccc(-c3c(-c4ccc(F)c(O)c4)nc4occn34)n2)S1(=O)=O", "False"],
  ["CC(C)(C)Nc1nc2c(OCCc3ccccc3)cccn2c1-c1ccccc1Cl", "True"],
  ["C=C1C(=O)O[C@H]2[C@H]1CC/C(Cn1cc(-c3cc(C)c(C)cc3C)nn1)=C\\CC[C@@]1(C)O[C@@H]21", "True"]
]}

Q) Given "CCN(Cc1cccc(S(=O)(=O)[O-])c1)c1ccc(C(=C2C=CC(=[N+](CC)Cc3cccc(S(=O)(=O)O)c3)C=C2)c2ccccc2S(=O)(=O)O)cc1" , is recorded growth strictly lower than 20%?
A) False

Q) Determine if "NCCCNc1nc2ccccc2c2c(=O)c3cc(F)ccc3sc12" shows growth strictly lower than 20%.
A) True

Q) # check: growth < 20% for "COc1cc2nc(-c3ccc(C(F)(F)F)cc3)cc(OCCN3CCCC3)c2cc1OC"
A) False

Q) Record "CN1CCN(c2ccc(Nc3nc(NCCNS(=O)(=O)c4ccc5ccccc5c4)c4sccc4n3)cc2)CC1" : is its growth strictly below 20%?
A) True
